# System: Fuc(a1-2)Gal(b1-4)[Fuc(a1-3)]GlcNAc(b1-3)Gal(b1-4)[Fuc(a1-3)]GlcNAc(b1-3)Gal(b1-4)[Fuc(a1-3)]GlcNAc
# Test Name: glycan array binding signal (z-score within array); higher = stronger binding
# Condition Label: glycan notation: IUPAC condensed, linker removed
The full list was thinned out, with the strongest signals kept by preference.
Property: glycan array binding signal (z-score); scope: individual binders

Binder	glycan array binding signal (z-score)
OrysaEULS2 (Oryza sativa) (protein) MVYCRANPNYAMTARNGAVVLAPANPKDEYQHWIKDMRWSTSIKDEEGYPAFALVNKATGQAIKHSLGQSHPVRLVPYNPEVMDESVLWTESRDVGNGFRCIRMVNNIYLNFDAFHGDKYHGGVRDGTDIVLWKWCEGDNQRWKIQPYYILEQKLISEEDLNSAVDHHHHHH	-0.194
CTLY 1 (Homo sapiens), Q6ZS10 (protein) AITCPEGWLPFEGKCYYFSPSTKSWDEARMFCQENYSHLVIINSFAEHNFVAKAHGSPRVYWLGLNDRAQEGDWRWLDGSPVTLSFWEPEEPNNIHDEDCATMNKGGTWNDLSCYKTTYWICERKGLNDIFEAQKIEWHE	4.81
MXA PilAct-eGFP (Myxococcus xanthus), Q59589 (protein) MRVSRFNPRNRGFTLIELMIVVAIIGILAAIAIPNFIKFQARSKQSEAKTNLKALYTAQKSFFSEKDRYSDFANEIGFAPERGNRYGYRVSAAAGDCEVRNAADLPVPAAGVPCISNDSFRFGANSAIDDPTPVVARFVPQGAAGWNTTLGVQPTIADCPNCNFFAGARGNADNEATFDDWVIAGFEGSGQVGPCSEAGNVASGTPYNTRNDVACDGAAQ	-0.292
MIG/CXCL9 (Homo sapiens) (protein) TPVVRKGRCSCISTNQGTIHLQSLKDLKQFAPSPSCEKIEIIIATLKNGVQTCLNPDSADVKELIKKTEKQVSQKKKQKNGKKHQKKKVLKVRKSQRSRQKKTT	-0.37
CLEC-6 (Homo sapiens), Q8WXI8 (protein) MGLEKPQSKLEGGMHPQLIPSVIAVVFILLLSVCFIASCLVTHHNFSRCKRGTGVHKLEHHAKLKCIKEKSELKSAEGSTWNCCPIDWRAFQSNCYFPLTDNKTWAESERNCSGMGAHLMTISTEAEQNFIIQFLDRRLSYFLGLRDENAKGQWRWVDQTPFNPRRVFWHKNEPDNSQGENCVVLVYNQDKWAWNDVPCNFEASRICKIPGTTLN	0.12
Strep tagII-anxA1 (Homo sapiens), P04083 (protein) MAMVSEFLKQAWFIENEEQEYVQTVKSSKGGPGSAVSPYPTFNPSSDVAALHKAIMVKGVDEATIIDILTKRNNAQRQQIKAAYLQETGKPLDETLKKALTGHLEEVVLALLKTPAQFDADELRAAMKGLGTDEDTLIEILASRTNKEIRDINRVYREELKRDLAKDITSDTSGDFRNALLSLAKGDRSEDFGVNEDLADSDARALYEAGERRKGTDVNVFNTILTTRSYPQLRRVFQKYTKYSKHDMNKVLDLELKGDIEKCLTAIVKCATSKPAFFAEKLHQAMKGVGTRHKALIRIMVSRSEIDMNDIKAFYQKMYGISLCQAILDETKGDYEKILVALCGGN	0.054
